Is logP at least 3? Then 1. If not, 0.

Reference set (6 entries):
NC1C2CCC1c1ccc(C(F)(F)F)cc1C2 (stereo unspecified) :: 1
CCc1c(O)c(=O)ccn1CC :: 0
CCOP(=S)(OCC)Oc1nc(Cl)c(Cl)cc1Cl :: 1
CC(C(O)c1ccccc1)N(C)C (stereo unspecified) :: 0
OC[C@H]1NC[C@H](O)[C@@H](O)[C@@H]1O :: 0
CCOC(=O)C1(c2ccccc2)CCN(C)CC1 :: 0

Query: Has CC1c2nc3ccccc3c(=O)n2CN1c1ccccc1 (stereo unspecified) a recorded logP greater than or equal to 3?
Result: 0

Query: Say whether CC(C)c1ccc(N)cc1 shows logP of 3 or more.
Result: 0

Query: Does Cc1c(C)c(C)c(C)c(C)c1C have a reported logP of at least 3?
Result: 1

Query: Determine whether this molecule has logP no lower than 3: NC(=O)c1cnc2n(c1=O)CCCC2
Result: 0

Query: Textbook exercise: given the entry CN(C)[C@@H]1C(O)=C(C(N)=O)C(=O)[C@@]2(O)C(O)=C3C(=O)c4c(O)cccc4[C@@](C)(O)[C@H]3[C@H](O)[C@@H]12 , state whether its logP is greater than or equal to 3.
Result: 0

Query: Check the entry CC(C(=O)O)N(C(=O)c1ccccc1)c1ccc(F)c(Cl)c1 (stereo unspecified) : does logP equal or exceed 3?
Result: 0

Query: Reported logP at or above 3? CC(=O)Nc1ccc2c(c1)S(=O)(=O)c1ccc(C)cc1C2=O
Result: 0

Query: Can COc1ncc(-c2ccncc2)cc1C#N be said to have logP at or above 3?
Result: 0

====

measured_metric: logP

See these solved cases before continuing.
CCN(CC)C(=O)c1ccccc1C :: 2.02
CN(C)C(=O)c1cccc(Oc2ccccc2)c1 :: 2.57
CN1C(CSCC(F)(F)F)Nc2cc(Cl)c(S(N)(=O)=O)cc2S1(=O)=O (configuration not stated) :: 1.9

The reported value for Cc1onc(-c2ccccc2Cl)c1C(=O)NC1C(=O)N2C1S(=O)C(C)(C)C2C(=O)O (configuration not stated) in terms of logP is 2

Kindly note the recorded logP for Cc1cc2c(cc1S(N)(=O)=O)S(=O)(=O)NC=N2 , which is -0.32

Measured logP, CCCC(=NOCC)C1C(=O)CC(C)(C2CC2)OC1=O (configuration not stated) : 3.28

Sample CCCOC(=O)c1ccoc1 ; logP observed: 2.36

Field logP (entry COc1ccc2cc(C(C)C(=O)OCC=C(C)CCC=C(C)C)ccc2c1 (configuration not stated) ) reads 7.77

Looking up O=[N+]([O-])c1c(Cl)c(Cl)c(Cl)c(Cl)c1Cl , I see its logP listed as 4.64

Measured logP, CC(=O)c1ccc2cc(C(C)C(=O)OCC(N)=O)ccc2c1 (configuration not stated) : 2.06

// logP lookup, compound = Nn1c(S)nnc(-c2cc(Cl)cc(Cl)c2)c1=O , result: 2.67

// logP lookup, compound = CCN1Cn2c(nc3ccccc3c2=O)C1C (configuration not stated) , result: 1.02

====

Listed here are compounds together with their documented logP.

NS(=O)(=O)c1cc2c(cc1[N+](=O)[O-])N=CNS2(=O)=O :: 0.08
Nc1ccc(S(=O)(=O)c2c(O)cc(O)cc2O)cc1 :: 1.53

In plain terms, CSc1nnc(-c2cc(Cl)cc(Cl)c2)c(=O)n1N has a documented logP of 3.02

# logP (compound: CCOC(=O)OCn1cc(F)c(=O)[nH]c1=O ) is -0.04

The reported value for O=[N+]([O-])c1cccc(S(=O)(=O)[O-])c1.[Na+] in terms of logP is -2.61

response.value for Cc1cccc(C)c1C(=O)CCN1CCCCC1 (field: logP) = 3.53

====

This section presents molecules with their documented logP values.
Give the value as a plain number.

Cc1cc(C)c(C)c(C)c1 :: 4.1
CCCc1c2oc(C(=O)O)cc(=O)c2cc2c(=O)cc(C(=O)O)n(CC)c12 :: 2.22
COC(=O)c1cnc2n(c1=O)CCCC2 :: -0.25
CCCCCCCC=CCCCCCCC(=O)O :: 6.58
CCC(C(=O)OCc1ccccc1)C(COC(=O)Cc1ccccc1)Cc1cncn1C (centres undefined) :: 4
O=c1[nH]c(=S)ccn1[C@H]1C=C[C@@H](CO)O1 :: -0.28
CCCC(=NOCC)C1C(=O)CC2(CCSCC2)OC1=O (centres undefined) :: 2.9
O=c1c2c(nc3n1CCC3)CCCC2 :: 0.83
COc1ccc2c(=O)c(C)c(-c3ccccc3)oc2c1CN(C)C :: 3.65
CCCNC(=O)CCn1ccc(=O)c(O)c1C :: -0.4

The reported logP of the molecule CS(=O)(=O)c1ccc(OCC(=O)O)cc1 was 0.06

Entry O=c1c2c(nc3ccccn13)CCC2 , logP reported as 1.19

// logP lookup, molecule = O=C(O)CCCC(=O)c1ccccc1 , result: 1.49

The molecule listed as CCCCCC(C)N (centres undefined) shows logP equal to 2.4

====

Items are presented alongside their recorded logP.
Please reply with the value in numeric form only.

# count of solved cases: 5
OCCN(CCO)Cc1cccc(COc2ccccc2)c1 :: 2.33
O=[N+]([O-])c1cnc(-c2ccc(F)cc2)n1CCO :: 1.33
Nc1c(Cl)cc(Cl)cc1Cl :: 3.52
CCON1C(=O)CC2(CCCC2)C1=O :: 1.26
OC(Cn1ccnc1)(c1ccc(F)cc1)c1ccc(Br)cc1 (stereo unspecified) :: 3.42

// recorded logP for CC(C)(C)C(COc1ccc(-c2ccccc2)cc1)OC(=S)n1ccnc1 (stereo unspecified) : 6.06

Lookup result for CC(C)(C)C(COc1ccc(C#N)cc1)OC(=O)n1ccnc1 (stereo unspecified) ; measured logP: 3.15

Noted for CC(=O)N(C)C1=NC(=O)C(=Cc2ccc([N+](=O)[O-])o2)S1 : its logP reads 1.05

# logP of CNC(=S)NCC#CCC(NC(=O)C(Cc1ccc2ccccc2c1)Cc1cccc2ccccc12)C(=O)NC(CC1CCCCC1)C(O)CC(=O)NCCN1CCOCC1 (stereo unspecified) = 5.46

// logP lookup, molecule = O=c1[nH]c(=O)n(C2OC(CO)CC2F)cc1F (stereo unspecified) , result: -0.72

Sure, the documented logP for CCCCCCCCO[C@@H]1O[C@H](CO)[C@H](O)[C@H](O)[C@H]1O is 1.46

====

measured_metric: logP
Lab note: record just the number, no unit beside it.

NS(=O)(=O)c1cc2c(cc1Cl)NC(c1ccccc1)=NS2(=O)=O :: 1.4

For record COc1ccc(Cn2cc(F)c(=O)[nH]c2=O)cc1 the listed logP is 1.04

Record Cc1ncc(OP(=O)(O)O)c(CO)c1O , field logP: -0.64

Memo: CCNC1C2CCC(C2)C1c1ccccc1 (stereo not given) , reported logP: 3.2

So for CCCCSc1nnc(C(C)C)c(=O)n1N , the logged logP turned out to be 3.21

====

measured_metric: logP
Please reply with the number alone, leaving off any unit.

CCOC(=O)C1=C(C)NC(C)=C(C(=O)OC)C1c1cccc(Cl)c1Cl (centres undefined) :: 3.86
COc1ccc(CON2C(=O)CC3(CCCC3)C2=O)cc1 :: 2.23
CC(C)(C)C(COc1ccccc1)OC(=S)n1ccnc1 (centres undefined) :: 4.27

Here's the next entry for you.
According to the records, this molecule NS(=O)(=O)c1cc2c(cc1Cl)NC(C(Cl)Cl)NS2(=O)=O (centres undefined) displays logP of 0.62

====

Consider the following molecules and their measured logP readings.
API doc: respond with a numeric literal and nothing else, no unit.

molecule CN(C)CCN(Cc1cccs1)c1ccccn1 , logP observed: 2.87

CCC(CC)(C(=O)NC(N)=O)C(=O)OC(C)C yielded logP of 1.99

Record CC(C)(C)C(COc1ccc([N+](=O)[O-])cc1)OC(=O)n1ccnc1 (configuration not stated) , field logP: 3.35

Input CCOC(=O)CN(C(=O)CCl)c1ccccc1OC(C)C . Output logP: 2.75

Data point: CN1CC(C)(C)C(=O)c2ccccc21 ; logP = 2.72

logP recorded for this molecule, Nc1nc(=O)n(C2OC(CO)CC2F)cc1F (configuration not stated) , is -0.92

Notebook: Cc1nc2ccccn2c(=O)c1C , logP read as 1

====

Non-standard residues stand in square brackets, D forms with d. Residues, ends and D or L forms follow the SMILES beside them.
measured_metric: logP
API note: the answer field is a bare number with no unit suffix.

// worked examples, logP included
Cc1ccc(C)c(Oc2cccc(C(=O)NC(C)C)c2)c1 :: 4.35
CC(=O)N[C@H](Cc1ccccc1)C(=O)N[C@H](Cc1ccccc1)C(N)=O (Ac-[dF]-[dF]-NH2) :: 1.19
CCOC(=O)C=C1NC(=O)C(N2CCCCC2)S1 (centres undefined) :: 2.34
O=C1CC2(CCCC2)C(=O)N1O :: -0.26
CNC12CC=CCC1c1ccccc1C2 (centres undefined) :: 3.28

Now look at this one.
For CCC(=O)n1c(=O)[nH]cc(F)c1=O the compound record lists logP as 0.19
